The measurements presented in this section are drawn from PubChem BioAssay (NCI).

- Test system: HCT-116 colon
- Test Description: NCI tumour cell line growth inhibition, 48 h
Property Label: log10 TGI (log10 of the value in µM)
A difference of one corresponds to tenfold TGI; all values are log10 with TGI in µM.

Example entries begin here.
What value of measured log10 TGI is listed for `CC(C)C[C@H](NC(=O)[C@H](Cc1cccc2ccccc12)NC(=O)N1CCOCC1)B(O)O` ?
-2.74

What value of measured log10 TGI is listed for `COc1cc2c3cc1Oc1c(O)c(OC)cc4c1[C@H](Cc1ccc(cc1)Oc1cc(ccc1O)C[C@H]3N(C)CC2)N(C)CC4` ?
1.35

What value of measured log10 TGI is listed for `COC(=O)/C=C/c1ccccc1N=[S@](C)(=O)c1ccc(C)cc1` ?
1.86

What value of measured log10 TGI is listed for `CCC[CH2][Sn-]([CH2]CCC)([CH2]CCC)[O]c1cc(Cl)c(Cl)cc1Cl` ?
-0.50

---
What value of measured log10 TGI is listed for `Cc1ccc(C(=O)N(C2CCCCC2)C2CCCCC2)cc1N=NN(C)C` ?
1.44

---

- Tested on: HL-60(TB) leukemia
- Test Description: NCI tumour cell line growth inhibition, 48 h
Reported TGI values for a set of compounds

Example entries begin here.
What value of measured TGI is listed for Cc1ccc([N+](=O)[O-])cc1S(=O)(=O)Nc1ccc(C2=NN(c3ccc([N+](=O)[O-])cc3[N+](=O)[O-])C(c3ccccc3)C2)cc1 (stereo unspecified) ?
57.5 µM

What value of measured TGI is listed for CC1(C)OC2OC(COC(=O)C=[N+]=[N-])C3OC(C)(C)OC3C2O1 (stereo unspecified) ?
> 100 µM

What value of measured TGI is listed for `CCN(CC)Cc1nc2sc3c(c2c(=O)n1-c1ccccc1)CCCC3` ?
> 100 µM

What value of measured TGI is listed for CCC1C(=O)C[C@H]2[C@@H]3C(O)CC4=CC(=O)CC[C@]4(C)[C@H]3CC[C@]12C (stereo partly specified) ?
> 50 µM

What value of measured TGI is listed for `COc1ccc(N(C(=O)Nc2ccc(Cl)c(Cl)c2)c2ccccc2)cc1` ?
> 10 µM

What value of measured TGI is listed for Cc1cn(C2CC(n3cc(Cn4cc(F)c(=O)[nH]c4=O)nn3)C(CO)O2)c(=O)[nH]c1=O (stereo unspecified) ?
> 100 µM

---
What value of measured TGI is listed for `COc1cc2c3c(n(C)c(=O)c2cc1OC)-c1cc2c(cc1/C3=C\CCCCCN)OCO2` ?
21.9 µM

What value of measured TGI is listed for `Nn1c(-c2ccccc2)nc2ccc(Br)cc2c1=O` ?
76.8 µM

What value of measured TGI is listed for O=[N+]([O-])C1C(c2ccccc2)C12c1ccccc1-c1ccccc12 (stereo unspecified) ?
> 100 µM

What value of measured TGI is listed for COC(=O)c1cc(C)ccc1CC(Cc1cccc(C)c1)C(=O)OC (stereo unspecified) ?
> 100 µM

What value of measured TGI is listed for CC(=O)C1CC(C)=CCC12C(=O)Nc1ccccc12 (stereo unspecified) ?
> 100 µM

What value of measured TGI is listed for `CN(C)c1ccc(N2C(=S)SC(=Nc3ccccc3)C2=Nc2ccccc2)cc1` ?
> 100 µM

What value of measured TGI is listed for COc1cccc(N2C(=O)C3c4[nH]c5ccccc5c4C4c5ccccc5CCC4C3C2=O)c1 (stereo unspecified) ?
> 10 µM

What value of measured TGI is listed for `O=c1[nH]nc(Cc2ccccc2)n1/N=C/c1c[nH]c2ccccc12` ?
> 100 µM

What value of measured TGI is listed for `COC(=O)N[C@H]1CCc2c(Br)c(OC)c(OC)c(OC)c2-c2ccc(SC)c(=O)cc21` ?
< 0.01 µM
